EXPERIMENT_DESCRIPTION: Biodistribution: organ distribution of F-18 signal in mice
Format: in vivo, male NMRI mice
CONDITION_SET: kidney, 240 min post i.v. injection
Catalogue of Organ distribution of F-18 signal, kidney readings, one per entry.
The answer is to be given in % ID/g; state only the numeric part.

COMPOUND	ASSAY_RESULT
O=C(NCC(=O)N1CCN(c2ccc(OCc3ccccc3)cc2)CC1)c1cccc(OCC[18F])c1	1.05
O=C(NCC(=O)N1CCN(c2ccc(OCc3ccccc3)cc2)CC1)c1cccnc1[18F] [Example 12c]	0.58
O=C(NCC(=O)N1CCN(c2ccc(OCc3ccccc3)cc2)CC1)c1ccc([18F])nc1 [Example 10e]	0.50
O=C(NCC(=O)N1CCN(c2ccc(OCc3ccccc3)cc2)CC1)c1ccnc([18F])c1 [Example 11c]	1.12

Please examine the following record next.
Indicate its recorded Organ distribution of F-18 signal, kidney; the compound in question is O=C(NCC(=O)N1CCN(c2ccc(OCc3ccccc3)cn2)CC1)c1ccnc([18F])c1 [Example 14f]
0.79

The values you see were collected from patent US20110250135A1.
